Reference for the values: patent US20110064740A1

Target: T1, human Aβ peptide (1-40) biotinylated at the C terminus (human, UniProt P05067 672-711, biotinylated at the C-terminus)
T1 construct: domain: β-amyloid peptide (1-40); Numbers 1-40 count on the β-amyloid peptide, not on APP; also called beta-amyloid 1-40 peptide (biotinylated at the C-terminus); streptavidin-captured beta-amyloid (1-40)
T1 sequence (P05067 672-711 limits assumed): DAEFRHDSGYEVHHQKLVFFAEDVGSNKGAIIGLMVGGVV
Test: competition ELISA, biotinylated human Aβ (1-40) on streptavidin plate; competitor: mouse 2E7 at constant concentration; Experiment 1
# key: entry, value: IC50

Some solved entries appear below for comparison.
binder="Humanised 2E7 variant H2L1 (antibody, human IgG1, kappa, V domains shown, Human IgG1 with L235A and G237A, human kappa; also called L1+H2; H2L1 whole IgG) VH: EVQLVESGGGLVQPGGSLRLSCAVSGFTFSDNGMAWVRQAPGKGLEWVSFISNLAYSIDYADTVTGRFTISRDNAKNSLYLQMNSLRAEDTAVYYCVSGTWFAYWGQGTLVTVSS VL: DIVMTQSPLSLPVTPGEPASISCRVSQSLLHSNGYTYLHWYLQKPGQSPQLLIYKVSNRFSGVPDRFSGSGSGTDFTLKISRVEAEDVGVYYCSQTRHVPYTFGGGTKVEIKR" measurement="1.28 µg/mL"
binder="Chimeric 2E7 antibody (2E7c) (antibody, human IgG1, V domains shown, Parent murine V regions on human IgG1 (L235A, G237A) and human C kappa; also called 2E7c Chimera; not shown: human IgG1 heavy chain constant region, Fc mutated (L235A, G237A); human C kappa constant region) VH: EVKLVESGGGLVQPGGSLKLSCAVSGFTFSDNGMAWVRQAPRKGPEWIAFISNLAYSIDYADTVTGRFTISRDNAKNTLYLEMSSLRSEDTAMYYCVSGTWFAYWGQGTLVTVSA VL: DVVLTQTPLSLPVSLGDQASISCRVSQSLLHSNGYTYLHWYLQKPGQSPKLLIYKVSNRFSGVPDRFSGSGSGTDFTLKISRVEAEDLGVYFCSQTRHVPYTFGGGTKLEIK" measurement="1.31 µg/mL"
binder="Humanised 2E7 variant H1L1 (antibody, human IgG1, kappa, V domains shown, Human IgG1 with L235A and G237A, human kappa; also called L1+H1) VH: EVQLVESGGGLVQPGGSLRLSCAASGFTFSDNGMAWVRQAPGKGLEWVSFISNLAYSIDYADTVTGRFTISRDNAKNSLYLQMNSLRAEDTAVYYCVSGTWFAYWGQGTLVTVSS VL: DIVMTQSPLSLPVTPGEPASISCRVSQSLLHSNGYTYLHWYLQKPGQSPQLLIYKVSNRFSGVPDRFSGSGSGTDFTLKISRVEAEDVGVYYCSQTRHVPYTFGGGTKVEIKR" measurement="1.62 µg/mL"

Please turn your attention to the following entry.
Fill in reported IC50 for this entry: Humanised 2E7 variant H3L1 (antibody, human IgG1, kappa, V domains shown, Human IgG1 with L235A and G237A, human kappa; also called L1+H3) VH: EVQLVESGGGLVQPGGSLRLSCAASGFTFSDNGMAWVRQAPGKGLEWISFISNLAYSIDYADTVTGRFTISRDNAKNSLYLQMNSLRAEDTAVYYCVSGTWFAYWGQGTLVTVSS VL: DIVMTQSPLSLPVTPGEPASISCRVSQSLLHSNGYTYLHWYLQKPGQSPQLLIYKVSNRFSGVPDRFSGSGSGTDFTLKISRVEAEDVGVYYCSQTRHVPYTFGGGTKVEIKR
1.53 µg/mL
